molecular target: T1, human bow-Ang-2 tetrameric construct (hBA2) (human); experiment: SPR, captured Ab
T1 construct: also called human BA2; hBA2-hIgG1
T1 sequence (chain, as listed by the source limits assumed): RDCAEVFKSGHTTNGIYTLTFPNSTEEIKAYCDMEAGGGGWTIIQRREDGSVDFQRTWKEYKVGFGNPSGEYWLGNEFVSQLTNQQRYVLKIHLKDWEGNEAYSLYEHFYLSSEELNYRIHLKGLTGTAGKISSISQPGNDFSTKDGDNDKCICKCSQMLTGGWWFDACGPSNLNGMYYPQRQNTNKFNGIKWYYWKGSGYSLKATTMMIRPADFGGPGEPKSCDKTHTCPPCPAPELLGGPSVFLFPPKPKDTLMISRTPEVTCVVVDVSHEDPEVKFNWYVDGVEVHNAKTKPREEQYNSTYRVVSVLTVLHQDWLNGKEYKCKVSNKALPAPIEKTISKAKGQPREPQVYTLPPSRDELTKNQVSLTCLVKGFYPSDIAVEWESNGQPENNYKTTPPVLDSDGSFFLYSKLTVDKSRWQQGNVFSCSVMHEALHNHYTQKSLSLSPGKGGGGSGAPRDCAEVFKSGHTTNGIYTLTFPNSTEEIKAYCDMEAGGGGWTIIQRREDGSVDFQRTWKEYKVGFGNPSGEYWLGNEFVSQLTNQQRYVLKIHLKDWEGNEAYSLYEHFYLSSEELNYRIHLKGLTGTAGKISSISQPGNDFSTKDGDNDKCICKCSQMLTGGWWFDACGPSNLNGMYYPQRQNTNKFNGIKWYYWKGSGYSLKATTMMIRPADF
Mark criterion met only when T1/2 stays strictly below 3 h. Values equal to the cut-off are criterion not met.

Hello, I'm reviewing records and need to know if T1/2 of H1H724N (antibody, V domains shown) VH: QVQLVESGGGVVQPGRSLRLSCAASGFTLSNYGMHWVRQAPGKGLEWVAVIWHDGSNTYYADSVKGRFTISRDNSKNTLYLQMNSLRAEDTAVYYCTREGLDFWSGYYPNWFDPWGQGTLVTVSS VL: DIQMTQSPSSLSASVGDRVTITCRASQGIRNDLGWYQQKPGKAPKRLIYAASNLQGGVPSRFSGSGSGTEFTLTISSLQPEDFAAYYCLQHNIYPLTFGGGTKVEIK is below 3 h. Could you check? criterion not met

Confirm or reject: T1/2 of H1H744N (antibody, V domains shown) VH: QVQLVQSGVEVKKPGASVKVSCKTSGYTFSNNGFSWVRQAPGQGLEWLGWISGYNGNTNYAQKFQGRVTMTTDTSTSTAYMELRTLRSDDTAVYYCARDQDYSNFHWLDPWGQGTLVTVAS VL: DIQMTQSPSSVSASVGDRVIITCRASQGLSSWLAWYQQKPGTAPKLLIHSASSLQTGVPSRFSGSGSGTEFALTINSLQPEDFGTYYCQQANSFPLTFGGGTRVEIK lies strictly below 3 h criterion not met

Lab note: confirm whether the reported T1/2 for this binder is below 3 h, equality not counting. binder: H1H732N (antibody, V domains shown) VH: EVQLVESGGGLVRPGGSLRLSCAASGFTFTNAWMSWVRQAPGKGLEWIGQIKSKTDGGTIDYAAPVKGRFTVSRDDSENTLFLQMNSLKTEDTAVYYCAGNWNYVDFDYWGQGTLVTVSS VL: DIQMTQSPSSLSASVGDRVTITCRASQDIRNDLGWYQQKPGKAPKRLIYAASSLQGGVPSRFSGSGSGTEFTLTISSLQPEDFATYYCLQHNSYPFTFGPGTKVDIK criterion met

Field: below-cutoff. Rule: recorded T1/2 strictly less than 3 h. Subject: H1H749N (antibody, V domains shown) VH: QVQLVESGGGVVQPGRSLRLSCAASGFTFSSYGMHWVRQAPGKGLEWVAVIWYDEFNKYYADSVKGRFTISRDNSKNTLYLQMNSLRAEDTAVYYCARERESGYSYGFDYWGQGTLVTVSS VL: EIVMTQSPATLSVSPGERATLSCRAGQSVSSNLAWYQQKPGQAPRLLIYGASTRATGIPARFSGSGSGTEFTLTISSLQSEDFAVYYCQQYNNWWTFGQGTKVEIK criterion not met

Please turn your attention to the following entry.
Regarding H1H730N (antibody, V domains shown) VH: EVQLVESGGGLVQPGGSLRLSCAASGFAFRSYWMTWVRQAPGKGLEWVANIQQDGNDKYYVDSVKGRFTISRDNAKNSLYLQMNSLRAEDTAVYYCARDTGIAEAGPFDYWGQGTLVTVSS VL: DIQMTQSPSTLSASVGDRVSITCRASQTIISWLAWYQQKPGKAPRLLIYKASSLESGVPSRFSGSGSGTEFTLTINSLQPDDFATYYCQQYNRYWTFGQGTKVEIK , kindly confirm whether its T1/2 is beneath 3 h. criterion met
